Quick list: growth inhibition per entry.
- assay comment: NCI Yeast Anticancer Drug Screen. Data for the mec2-1 strain (AID 157)
- protocol conditions: S. cerevisiae mec2-1 strain, at 50.0 µM, active compounds read high
About 79,000 compounds went through this panel and 15% of them were active in at least one assay; those are over-represented in the sample as a whole.

compound: COc1ccc2c(c1O)-c1cc(O)cc3c1C(C2)NCC3 (stereo unspecified)
reading unit: %
growth inhibition: 21.8
//
compound: O=c1c(O)c(-c2ccccc2)oc2ccccc12.[Zn+2]
reading unit: %
growth inhibition: 7.25
//
compound: CN1CCC(C(O)(c2ccccc2)c2ccccc2)CC1
reading unit: %
growth inhibition: -11.3
//
compound: N=C(N)c1nn[nH]n1
reading unit: %
growth inhibition: -5.25
//
compound: CCN1CC2(CO)CCC(OC)C34C5CC6C(OC)CC(O)(C5C6OC)C(O)(C(OC)C23)C14 (stereo unspecified)
reading unit: %
growth inhibition: -16.6
//
compound: CCCCN1CCC2(CC1)C(=O)NC(=S)NC2=O
reading unit: %
growth inhibition: -2.5

* * *

- assay comment: NCI Yeast Anticancer Drug Screen. Data for the rad50 strain (AID 155);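 note: 0% = growth of vehicle-only cultures of the same strain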
- protocol conditions: S. cerevisiae rad50 strain growth inhibition; at 50.0 µM
About 79,000 compounds went through this panel and 15% of them were active in at least one assay; those are over-represented in the sample as a whole. Activity calls are given as the source filed them. Cut-off read from the data, not from the text of the source: active = growth inhibition above about 70%; inactive = the rest.
Outcomes: TRUE (active), FALSE (inactive)

compound: CS(=N)(=O)CCC(N)C(=O)O (stereo unspecified)
answer label: FALSE
--
compound: Cc1ccc(S(=O)(=O)N=S(=O)(CCCl)CCCl)cc1
answer label: TRUE
--
compound: S=P(Nc1ccccc1Cl)(Nc1ccccc1Cl)c1ccccc1
answer label: FALSE
--
compound: O=[P+](O)C(O)c1ccccc1 (stereo unspecified)
answer label: FALSE
--
compound: O=C(O)CN(CCN(CC(=O)O)CC(=O)O)CC(=O)O.[Co+2]
answer label: FALSE
--
compound: CC1(C)CC(OP(=O)(Cl)OC2CC(C)(C)N(O)C(C)(C)C2)CC(C)(C)N1O
answer label: FALSE

* * *

- assay comment: NCI Yeast Anticancer Drug Screen. Data for the mec2-1 strain (AID 157)
- protocol conditions: S. cerevisiae mec2-1 strain, at 50.0 µM (retest, dose inferred, filed as 5.0)
The panel holds about 79,000 compounds, 15% with a hit somewhere; the sample as a whole holds those more often. Activity calls are given as the source filed them. Cut-off read from the data, not from the text of the source: active = growth inhibition above about 70%; inactive = the rest.
Outcomes: yes = active, no = inactive

compound: O=C(NCC1(O)N=C(c2ccc(F)cc2)c2ccsc2-n2cccc21)c1ccc(Cl)cc1Cl (centres undefined)
answer label: no
//
compound: CCC[CH2][Sn]([CH2]CCC)([O]C(=O)CCC(C)=O)[O]C(=O)CCC(C)=O
answer label: yes
//
compound: O=c1[nH]c2ccccc2n1C1CCN(CCCC(c2ccc(F)cc2)c2ccc(F)cc2)CC1
answer label: no
//
compound: NC(=O)c1ccc(C(=O)Nc2ccc([As](=O)(O)O)cc2)cc1
answer label: no
//
compound: C[C@]12C/C(=C/O)C(=O)C(O)=C1CC[C@@H]1C2CC[C@@]2(C)C1CC[C@@H]2O (some centres undefined)
answer label: no
//
compound: CO/C1=C\C(C)=C\C(C)C(O)C(C)C/C(C)=C/C=C/C(OC)C(C(C)C(O)C(C)C2(O)CC(O)C(C)C(C(C)C)O2)OC1=O (centres undefined)
answer label: no
//
compound: Cc1ccc(NCc2ccccc2)cc1[As](=O)(O)O
answer label: yes
//
compound: O=[As](O)(O)c1ccc(Cc2ccc([As](=O)(O)O)cc2)cc1
answer label: yes
//
compound: CCCCSc1ccc(C(SCCN(CC)CC)c2ccccc2)cc1 (centres undefined)
answer label: yes

* * *

- assay comment: NCI Yeast Anticancer Drug Screen. Data for the cln2 rad14 strain (AID 165);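 note: 0% = growth equal to vehicle treated cultures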
- protocol conditions: S. cerevisiae cln2 rad14 strain, at 5.0 µM (retest, dose inferred, filed as 0.5)
The panel holds about 79,000 compounds, 15% with a hit somewhere; the sample as a whole holds those more often. Calls of active or inactive are those of the source. Cut-off read from the data, not from the text of the source: active = growth inhibition above about 70%; inactive = the rest.
Outcomes: active, inactive

compound: O=C(C[n+]1ccccc1)C1CCc2ccccc2C1 (stereo unspecified)
answer label: inactive
--
compound: Cc1cc(N(CCCl)CCCl)ccc1C1N(Cc2ccc(N(CCCl)CCCl)cc2Cl)CCCN1Cc1ccc(N(CCCl)CCCl)cc1Cl
answer label: active
--
compound: CN1CCOC12CCC1(C)C(CCC3C4CCC(O)C4(C)CCC31)C2 (stereo unspecified)
answer label: inactive
--
compound: O=[N+]([O-])/C=C/c1ccccc1Cl
answer label: inactive
--
compound: CC(C)NC1CC2CCCCC2CC1c1ccccc1 (stereo unspecified)
answer label: inactive
--
compound: CCOC(=O)c1ccc(NP(=O)(Oc2ccccc2)Oc2ccccc2)cc1
answer label: inactive
--
compound: C1CC[N-]CC1.C1CC[N-]CC1.N#C[S-].N#C[S-].[Cd]
answer label: inactive
--
compound: CCCC1CC[N-]CC1.CCCC1CC[N-]CC1.N#C[S-].N#C[S-].[Cd]
answer label: inactive
--
compound: CCC[CH2][Sn]([CH2]CCC)[S]CC(N)C(=O)O (stereo unspecified)
answer label: inactive
--
compound: Cc1nnc2n1-c1ccc(Cl)cc1C(c1ccccc1)=[N+]([O-])C2
answer label: inactive
--
compound: O=C(O)C(Br)C(Br)C(=O)O.[Ag] (stereo unspecified)
answer label: active

* * *

- assay comment: NCI Yeast Anticancer Drug Screen. Data for the cln2 rad14 strain (AID 165);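 note: 0% = growth equal to vehicle treated cultures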
- protocol conditions: S. cerevisiae cln2 rad14 strain, at 50.0 µM, active compounds read high
This is part of a sample that, as a whole, favours compounds with a hit. Of some 79,000 tested, about 15% had one in any assay.

compound: O=C(c1ccccc1)C1C(c2ccccc2)N1Cc1ccccc1 (configuration not stated)
growth inhibition (%): 6.15

compound: CCC[CH2][Sn]1([CH2]CCC)[O]CC(COc2c(Cl)cc(Cl)cc2Cl)[O]1 (configuration not stated)
growth inhibition (%): 90

compound: OCN1CCC23c4c5ccc(O)c4OC2C(O)C=CC3C1C5 (configuration not stated)
growth inhibition (%): -68.5

compound: C1OCN2CSCC12 (configuration not stated)
growth inhibition (%): 5.35

compound: CCc1ccc(OP(=O)(Oc2cc(C)cc(C)c2)Oc2cc(C)cc(C)c2)cc1
growth inhibition (%): 3.45

compound: O=[N+]([O-])c1cccc(SC(Cl)(Cl)Cl)c1
growth inhibition (%): 97.1

compound: NS(=O)(=O)c1ccc([As](=O)(O)O)cc1
growth inhibition (%): -45.5

compound: COc1cc(Cl)c(OP(=O)(OC)OC)cc1Cl
growth inhibition (%): -1.9

compound: O=C(O)C1C(C(=O)O)C2(Cl)C(Cl)=C(Cl)C1(Cl)C2(Cl)Cl.[Cd] (configuration not stated)
growth inhibition (%): -14.7

compound: CSCC(NP1(=O)SC(NN=C2CCCCC2)=NC1(C)C)C(=O)O (configuration not stated)
growth inhibition (%): -5.5

compound: COc1c2c(nc3ccccc13)-c1cc3c(c(=O)n1C2)COC(=O)C3(O)CC(=O)N1CCOCC1 (configuration not stated)
growth inhibition (%): 52.5

compound: O=C1CC2(CCNCC2)C(=O)N1N1CCOCC1
growth inhibition (%): 7.55

* * *

- assay comment: NCI Yeast Anticancer Drug Screen. Data for the mlh1 rad18 strain (AID 175)
- protocol conditions: S. cerevisiae mlh1 rad18 strain growth inhibition; at 50.0 µM
About 79,000 compounds went through this panel and 15% of them were active in at least one assay; those are over-represented in the sample as a whole. Calls of active or inactive are those of the source. Rule as the data show it: active = growth inhibition above about 70%; inactive = the rest.
Outcomes: active, inactive

compound: O=C1CCCC1Cl (centres undefined)
answer label: inactive

compound: COc1ccc([N+](=O)[O-])cc1CNCCCl
answer label: inactive

compound: CC(NC1=NCCO1)c1cccs1 (centres undefined)
answer label: inactive

compound: Cc1cc[n+](C2C(=O)c3ccccc3C(=O)C2Nc2cc(Cl)ccc2Cl)cc1 (centres undefined)
answer label: active

compound: CN1C(=O)N(C)C(O)C(Cl)(Br)C1=O (centres undefined)
answer label: inactive

compound: CN(C)c1c2c(=O)n(C)c(=O)n(C)c2nc2cccc[n+]12
answer label: inactive

compound: Nc1cc(S(=O)(=O)F)ccc1Cl
answer label: inactive

compound: COC(C(=O)O)(c1ccccc1)c1ccccc1
answer label: inactive

compound: COC([CH2][Hg])CN1C(=O)c2cc(C)c(C)cc2C1=O (centres undefined)
answer label: active

compound: Cc1c(=O)n(O)c2ccccc2[n+]1[O-]
answer label: inactive

compound: C[CH2][Pb]([CH2]C)([CH2]C)[O]C(C)=O
answer label: active

compound: C[C@@H](O)[C@H]1/C=C/C=C\C(=O)O[C@@H]2C[C@H]3O[C@@H]4[C@@H]5OC5(C)CCC4(COC(=O)[C@H]4O[C@]4(C)[C@@H](O)CO1)[C@]2(C)[C@]31CO1 (some centres undefined)
answer label: active

compound: Nc1[nH]c(=S)[nH]c(=O)c1Cn1ccnc1
answer label: inactive

compound: S=C(SSC(=S)N(Cc1ccccc1)Cc1ccccc1)N(Cc1ccccc1)Cc1ccccc1
answer label: inactive

compound: NC(=O)C(CCN1CCCCC1)(c1ccccc1)c1ccccc1
answer label: inactive

compound: COP(=O)(OC)/C(=C/c1c[nH]c2ccccc12)C(=O)O
answer label: inactive

compound: N=C(N)c1nn[nH]n1
answer label: inactive

compound: CCC1(c2c(F)c(F)c(N)c(F)c2F)CCC(=O)NC1=O (centres undefined)
answer label: inactive

compound: CCCCOP(=O)(OCCCC)Oc1cccc([N+](=O)[O-])c1
answer label: inactive

compound: O=[n+]1c2ccccc2n([O-])c2ccccc21.[Cl][Cu][Cl]
answer label: active

compound: O=[N+]([O-])O.[Ce]
answer label: inactive

compound: CC(=O)[C-](Cl)C(C)=O.CC(=O)[C-](Cl)C(C)=O.CC(=O)[C-](Cl)C(C)=O.[Ru+3]
answer label: active

compound: CCOC(=O)C(C(=O)OCC)P(=S)(S)c1ccccc1 (centres undefined)
answer label: inactive

compound: CC(=O)OC1CCC2(C)C3CCC4(C)C(Oc5ccccc5)CCC4C3CC(Br)C2(O)C1 (centres undefined)
answer label: inactive
